Where do the numbers come from? From PubChem BioAssay (Tox21).

- SYSTEM: Cytochrome P450 2C19 (Homo sapiens) (UniProt P33261)
- Sequence (P33261 whole entry, looked up): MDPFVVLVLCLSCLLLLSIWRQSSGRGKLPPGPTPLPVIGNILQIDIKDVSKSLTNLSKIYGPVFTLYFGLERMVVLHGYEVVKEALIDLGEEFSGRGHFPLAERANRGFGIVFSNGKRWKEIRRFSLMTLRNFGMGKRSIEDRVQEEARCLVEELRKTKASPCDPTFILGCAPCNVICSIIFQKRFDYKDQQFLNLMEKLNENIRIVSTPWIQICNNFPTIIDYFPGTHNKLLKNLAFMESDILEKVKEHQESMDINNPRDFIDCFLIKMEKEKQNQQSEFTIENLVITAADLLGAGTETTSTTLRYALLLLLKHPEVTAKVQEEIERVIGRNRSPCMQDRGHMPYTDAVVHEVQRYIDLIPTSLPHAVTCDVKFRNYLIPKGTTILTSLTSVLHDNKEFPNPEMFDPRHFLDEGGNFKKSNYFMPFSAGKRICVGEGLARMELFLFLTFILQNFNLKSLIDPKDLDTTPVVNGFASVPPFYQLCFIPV
- ASSAY TEXT: Cytochrome P450 Family 2 Subfamily C Member 19 (CYP2C19) small molecule antagonists: luciferase reporter qHTS assay (AID 1671197); further: nearly all actives have a fitted effect of over 65% in size
- CONDITION SET: P450-Glo CYP2C19 enzyme, luciferin luminescence, 1 h; series mostly up to 52.9 µM
Inconclusive results are not listed. Active and inactive are the calls of the source. The call rests on the fitted dose curve; in most records, active means well fitted inhibition curve with a large enough effect in the repeat runs; inconclusive means weak or mixed curves; inactive means no such curve, though single readings can be large or run the other way. Where a SMILES comes first, the peptide text is derived from it. [ ]: non-standard residue; d: D form. pGlu = O=C1CC[C@@H](C(=O)O)N1
Outcomes you can answer with include only these: active, inactive

Request: What call does the record list for "[O-][n+]1cccc(CO)c1" ?
Response: inactive

Request: What call does the record list for "OCCc1ccccn1" ?
Response: inactive

Request: What call does the record list for "CN1CCN(c2cc3c(nn2)Oc2ccccc2N3C)CC1" ?
Response: inactive

Request: What call does the record list for "CCOC(=O)CCC(=O)OCC" ?
Response: inactive

Request: What call does the record list for "c1ccc(CCc2ccccc2)cc1" ?
Response: inactive

Request: What call does the record list for "CNC(=O)Nc1ccc(Cl)c(Cl)c1" ?
Response: active

Request: What call does the record list for C[C@H]1[C@H](NC(=O)/C(=N/OC(C)(C)C(=O)O)c2csc(N)n2)C(=O)N1S(=O)(=O)O (stereo in doubt) ?
Response: inactive

Request: What call does the record list for "C=C(C)C(=O)OCCOCCOCCOCCOC(=O)C(=C)C" ?
Response: active

Request: What call does the record list for "CCCOC(=O)CC" ?
Response: inactive

Request: What call does the record list for "CC(C)CCCO" ?
Response: inactive

Request: What call does the record list for C=CC(C)(CCC=C(C)C)OC(=O)CC (stereo not given) ?
Response: active

Request: What call does the record list for "CCCCCCCCCCCCCCCCCCO" ?
Response: inactive

Request: What call does the record list for "CCCCOCCOC(=O)COc1cc(Cl)c(Cl)cc1Cl" ?
Response: active

Request: What call does the record list for "CC(C)(C)c1ccc(-c2ccc(C(C)(C)C)cc2)cc1" ?
Response: inactive

Request: What call does the record list for "COc1cc(C(=O)NCc2ccc(OCCN(C)C)cc2)cc(OC)c1OC" ?
Response: inactive

Request: What call does the record list for "NC(=O)Cc1cccc2ccccc12" ?
Response: inactive

Request: What call does the record list for "CCCc1nn(C)c2c(=O)[nH]c(-c3cc(S(=O)(=O)N4CCN(C)CC4)ccc3OCC)nc12" ?
Response: inactive

Request: What call does the record list for "CCN(C=O)CC" ?
Response: inactive

Request: What call does the record list for CC(=O)Nc1ccc(OCC(O)CNC(C)C)cc1 (stereo not given) ?
Response: inactive

Request: What call does the record list for "Cc1onc(-c2c(Cl)cccc2Cl)c1C(=O)Cl" ?
Response: active

Request: What call does the record list for "CC(C)(C)C(=O)Oc1ccc(S(=O)(=O)Nc2ccccc2C(=O)NCC(=O)O)cc1" ?
Response: inactive

Request: What call does the record list for CCNC(=O)[C@@H]1CCCN1C(=O)[C@H](CCCN=C(N)N)NC(=O)[C@H](CC(C)C)NC(=O)CNC(=O)[C@H](Cc1ccc(O)cc1)NC(=O)[C@H](CO)NC(=O)[C@H](Cc1c[nH]c2ccccc12)NC(=O)[C@H](Cc1cnc[nH]1)NC(=O)[C@@H]1CCC(=O)N1 ([pGlu]HWSYGLRP-NHEt) ?
Response: inactive

Request: What call does the record list for "C[N+](C)(CCOc1ccccc1)Cc1cccs1" ?
Response: inactive

Request: What call does the record list for CC(C(=O)O)c1cccc(Oc2ccccc2)c1 (stereo not given) ?
Response: inactive

Request: What call does the record list for "CCN(Cc1ccccc1)c1ccccc1" ?
Response: active
